Reported inhibition at 50 µM is given for each of the following compounds.
# Test system: SARS-CoV-2 (SARS-CoV2/ZG/297-20) in Vero E6 cells
# assay notes: microbe, parasite or virus in culture
# Format: cell-based
# measurement parameters: Severe acute respiratory syndrome coronavirus 2, Vero C1008, 72 h, read-out: Antiviral Activity 50 uM

Here's what some known entries look like.
compound	inhibition at 50 µM
O=C1CCC(N2C(=O)c3cccc(OCCCCCCCC(=O)Nc4cccn([C@@H](CC5CC5)C(=O)N[C@@H](C[C@@H]5CCNC5=O)C(=O)C(=O)NCc5ccccc5)c4=O)c3C2=O)C(=O)N1 (stereo partly shown)	< 50%
O=C(COc1ccc(C2CCC(=O)NC2=O)cc1)NCCCCCNC(=O)c1ccc2cncc(N3C(=O)NC4(CC(c5ccccc5Cl)C4)C3=O)c2c1 (stereo not shown) [Compound C10778R]	> 75%
O=C1CCC(N2C(=O)c3ccc(NCCCCCCNC(=O)c4ccc5cncc(N6C(=O)NC7(CC(c8ccccc8Cl)C7)C6=O)c5c4)cc3C2=O)C(=O)N1 (stereo not shown) [Compound C10778Q]	< 25%
O=C1CCC(N2C(=O)c3cccc(OCCCCNC(=O)c4ccc5cncc(N6C(=O)NC7(CC(c8ccccc8Cl)C7)C6=O)c5c4)c3C2=O)C(=O)N1 (stereo not shown)	> 75%
O=C1CCC(N2C(=O)c3cccc(NCCCNC(=O)[C@@H](NC(=O)C(c4cccnc4)N(C(=O)c4ccco4)c4ccc5c(c4)oc4ccccc45)c4ccccc4)c3C2=O)C(=O)N1 (stereo partly shown)	< 0%
O=C1CCC(N2C(=O)c3cccc(NCCOCCOCCNC(=O)C(NC(=O)C(c4cccnc4)N(C(=O)c4ccco4)c4ccc(-c5ccccc5)cc4)c4ccccc4)c3C2=O)C(=O)N1 (single isomer, unassigned)	< 0%
O=C1CCC(N2C(=O)c3cc(F)c(N4CCN(CC5CCN(C(=O)[C@H](NC(=O)[C@@H](c6cccnc6)N(C(=O)c6ccco6)c6ccc(-c7ccccc7)cc6)c6ccccc6)CC5)CC4)cc3C2=O)C(=O)N1 (single isomer, unassigned)	< 25%
O=C1CCC(N2C(=O)c3cccc(OCCCCCCC(=O)Nc4cccn([C@@H](CC5CC5)C(=O)N[C@@H](C[C@@H]5CCNC5=O)C(=O)C(=O)NCc5ccccc5)c4=O)c3C2=O)C(=O)N1 (stereo partly shown)	< 25%

Qu. Using the record for O=C1CCC(N2C(=O)c3cccc(NCCNC(=O)[C@H](NC(=O)[C@@H](c4cccnc4)N(C(=O)c4ccco4)c4ccc(-c5ccccc5)cc4)c4ccccc4)c3C2=O)C(=O)N1 (mixture of isomers) , report its inhibition at 50 µM.
Ans. < 0%

Qu. State the recorded inhibition at 50 µM for this entry: O=C1CCC(N2C(=O)c3cc(F)c(N4CCN(C(=O)[C@H](NC(=O)[C@@H](c5cccnc5)N(C(=O)c5ccco5)c5ccc(-c6ccccc6)cc5)c5ccccc5)CC4)cc3C2=O)C(=O)N1 (single isomer, unassigned)
Ans. < 25%

Qu. Need inhibition at 50 µM, item O=C(COc1ccc(C2CCC(=O)NC2=O)cc1)NCCCCNC(=O)[C@H](NC(=O)[C@@H](c1cccnc1)N(C(=O)c1ccco1)c1ccc(-c2ccccc2)cc1)c1ccccc1 (single isomer, unassigned)
Ans. < 0%
